For each of the compounds below, state its growth.
# System: MDA-MB-231 breast
# experimental.details: NCI-60 one-dose screen, 48 h (100 = growth as untreated, 0 = no growth, -100 = all killed)
# condition.parameters: 10 µM unless noted
About 83,000 compounds went through this panel and 20% of them were active in at least one assay; those are over-represented in the sample as a whole.
Give just the number in %; leave the unit off.

-- ask So what's the measured growth for this one? "COC(=O)[C@@H]1CC[C@]2(C)[C@H](CC[C@@H]3O[C@@]32C)[C@@]1(C)CC(=O)c1ccoc1"
-- reply 88.3

-- ask Consider the compound shown here: "O=C1Nc2c(ccc(Cl)c2Cl)/C1=C/c1cc(Br)c(O)c(Br)c1" What is its recorded growth?
-- reply 74.8

-- ask Which growth reading was recorded for the compound "CC/C=C\C[C@H](O)C/C=C1/C(=O)C=C[C@@H]1C/C=C\CCCC(N)=O" ?
-- reply 20.4

-- ask Given the entry O=C1CC(c2nc3ccccc3[nH]2)CN1C1CCCCC1 (stereo not given) , report its measured growth.
-- reply 102

-- ask Please report the recorded growth for CCCCCCCCCCCCN1CCCC(C)C1 (stereo not given) .
-- reply 55.8

-- ask Given "O=[N+]([O-])c1cccc(-c2nc3sccn3c2-c2ccnc(NCCNS(=O)(=O)c3ccc(C(F)(F)F)cc3)n2)c1" , state its recorded growth.
-- reply 60.2

-- ask Quick one: growth of "O=C(N/N=C/c1ccc(O)cc1O)c1cccnc1" ?
-- reply 62.5

-- ask For the compound shown here, "O=C(Cn1cc(CN2C(=O)c3ccccc3S2(=O)=O)nn1)Nc1ccc([N+](=O)[O-])cc1Cl" , give the reported growth.
-- reply 90

-- ask Consider the compound shown here: "COc1ccccc1/C=C(/C(=O)c1ccccc1)c1ccccc1" What is its recorded growth?
-- reply 98.6

-- ask Quick one: growth of "CN1CCN(Cc2ccc(NC(=O)c3cncc(C#Cc4c(N)ncc5ccc(C#N)cc45)c3)cc2C(F)(F)F)CC1" ?
-- reply -82

-- ask So what's the measured growth for this one? "O=C(/C=C/c1ccc(Cl)cc1)/C=C/c1cc2ccccc2[nH]c1=O"
-- reply 63.8

-- ask Endpoint output: growth of "O=c1ccc2cc3ccccc3cc2[nH]1" . Value?
-- reply 101

-- ask Any idea what its growth is? The compound is "CCOC(=O)c1c2c(n3ccc(NC(=O)CCN4CCOCC4)cc13)C(=O)c1ncccc1C2=O"
-- reply 26

-- ask Any idea what growth was measured for "O=C(COCc1c(-c2ccccc2)no[n+]1[O-])Nc1ccc(C(=O)/C=C/c2ccc3c(c2)OCO3)cc1" ?
-- reply 101

-- ask // lookup growth for C=C1CCC2C3(C)COC(c4ccccc4Br)OC3CCC2(C)C1C/C=C1/C(=O)OCC1OC(C)=O (stereo not given)
-- reply -37.1

-- ask Looking for the measured growth of "CCOC(=O)/C=C/C(=O)[C@H](CC(C)C)NC(=O)[C@H](Cc1ccccc1)NC(=O)OCc1ccccc1" , can you help?
-- reply 63.5

-- ask Fill in the blank: the reported growth of CC(=O)OCC(=O)C1CCC=CC1OC(C)=O (stereo not given) is ____.
-- reply 109

-- ask Which growth is reported for this compound? "O=C1c2cc3c(cc2-c2c1c1cc(Cl)c(Cl)cc1c(=O)n2CCCn1ccnc1)OCO3"
-- reply 41.4

-- ask Quick one: growth of CCN(CC)C12CCCCC1(C)C(C#N)(C#N)C(C#N)=C(N)O2 (stereo not given) ?
-- reply 108

-- ask So what's the measured growth for this one? "COc1cc(-c2c3c(nc4c2c(C)nn4-c2ccccc2)-c2ccccc2C(=O)C3=O)cc(OC)c1OC"
-- reply 70.9
